Values were extracted from paper PMC7824081.

- System: MDA-MB-231 TNBC cells
- Protocol details: SRB cell proliferation assay, MDA-MB-231
- Format: cell-based, human
- Reported conditions: ratio of IC50 values between MCF10A and MDA-MB-231 cells
Some molecules, each annotated with its measured Therapeutic Index.
Measured parameter: Therapeutic Index

INSERT INTO assay_data (molecule, measured_target, measured_parameter, measured_value) VALUES
  ('O=C(NCC[Se]Sc1ccccc1)/C(Cc1ccc(F)cc1)=N/O', 'MDA-MB-231 TNBC cells', 'Therapeutic Index', 66.77),
  ('O=C(NCC[Se]Sc1ccccc1)/C(Cc1ccc(OCc2ccccc2)cc1)=N/O', 'MDA-MB-231 TNBC cells', 'Therapeutic Index', 108.22),
  ('O=C(NCC[Se]Sc1ccccc1)/C(Cc1ccc(Cl)c(Cl)c1)=N/O', 'MDA-MB-231 TNBC cells', 'Therapeutic Index', 68.67),
  ('CCOc1ccc(C/C(=N\O)C(=O)NCC[Se]Sc2ccccc2)cc1', 'MDA-MB-231 TNBC cells', 'Therapeutic Index', 123.65),
  ('CC(C)(C)c1ccc(CC(=NO)C(=O)NCCSSc2ccccc2)cc1 [PsA-3091, reference compound]', 'MDA-MB-231 TNBC cells', 'Therapeutic Index', 68.99),
  ('O=C(NCC[Se]Sc1ccccc1)/C(Cc1ccc([N+](=O)[O-])cc1)=N/O', 'MDA-MB-231 TNBC cells', 'Therapeutic Index', 95.53),
  ('O=C(NCC[Se]Sc1ccccc1)/C(Cc1ccc(Cl)cc1)=N/O', 'MDA-MB-231 TNBC cells', 'Therapeutic Index', 57.60),
  ('O=C(NCC[Se]Sc1ccccc1)/C(Cc1ccc(F)c(F)c1)=N/O', 'MDA-MB-231 TNBC cells', 'Therapeutic Index', 54.23),
  ('O=C(NCC[Se]Sc1ccccc1)/C(Cc1ccccc1)=N/O', 'MDA-MB-231 TNBC cells', 'Therapeutic Index', 86.08),
  ('O=C(NCC[Se]Sc1ccccc1)/C(Cc1ccc(O)c(Cl)c1)=N/O', 'MDA-MB-231 TNBC cells', 'Therapeutic Index', 68.08);

---

Some compounds, each annotated with its measured Therapeutic Index.
- System: MDA-MB-231 TNBC cells
- Protocol details: SRB cell proliferation assay, MDA-MB-231
- Assay type: cell-based, human
- Reported conditions: ratio of IC50 values between MCF10A and MDA-MB-231 cells
- Protocol: Human breast epithelial cell line (MCF10A) and human TNBC cell lines (MDA-MB-468, MDA-MB-231, Hs578T, and HCC38 cells) were provided by the American Type Culture Collection (Manassas, VA, USA). […] Cell proliferation was evaluated using the SRB assay. […] Cell proliferation was then determined by measuring the absorbance at 515 nm.
Measured parameter: Therapeutic Index

INSERT INTO results (compound, measured_parameter, measured_value) VALUES
  ('CC(=O)O[C@H]1C(=O)[C@@]2(C)[C@H]([C@H](OC(=O)c3ccccc3)[C@]3(O)C[C@H](OC(=O)[C@H](O)[C@@H](NC(=O)c4ccccc4)c4ccccc4)C(C)=C1C3(C)C)[C@]1(OC(C)=O)CO[C@@H]1C[C@@H]2O [Paclitaxel, reference compound]', 'Therapeutic Index', 19.80),
  ('O=C(NCC[Se]Sc1ccccc1)/C(Cc1ccc2ccccc2c1)=N/O [9c]', 'Therapeutic Index', 61.30),
  ('O=C(NCC[Se]Sc1ccccc1)/C(Cc1ccc(Br)cc1)=N/O [9h]', 'Therapeutic Index', 72.85);
